Measured pIC50, listed per entry.
System: NCI-H196 SCLC complex tumor spheroid viability
Assay Name: Anticancer human tumor NCI-H196 cell line growth inhibition;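 also: spheroids exposed to compounds for 7 days before readout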
Recorded Conditions: curve of first compound; second compound 0.3 µM
pIC50: −log10 of the molar value.
Readout Kind: pIC50

- Compound: "Cn1ncnc1[C@H]1c2n[nH]c(=O)c3cc(F)cc(c23)N[C@@H]1c1ccc(F)cc1 + CC[C@@]1(O)C(=O)OCc2c1cc1n(c2=O)Cc2cc3c(CN(C)C)c(O)ccc3nc2-1"
  Value Observed: "< 5.52"
- Compound: "CNCc1ccc(-c2cc(-c3nc(-c4ccc(S(=O)(=O)C(C)C)cc4)cnc3N)on2)cc1 + CC[C@@]1(O)C(=O)OCc2c1cc1n(c2=O)Cc2cc3c(CN(C)C)c(O)ccc3nc2-1"
  Value Observed: "< 5.52"
- Compound: "[2H]c1nc(C)nc([2H])c1-c1cc(NC[C@@H](C)c2cccc3c(C(=O)NC)ccnc23)ncn1 + CC[C@@]1(O)C(=O)OCc2c1cc1n(c2=O)Cc2cc3c(CN(C)C)c(O)ccc3nc2-1"
  Value Observed: "< 5.00"
- Compound: "COc1cc(C)[nH]c(=O)c1CN1CCc2c(Cl)cc(C(OC)C3COC3)c(Cl)c2C1=O (stereo not given) + CC[C@@]1(O)C(=O)OCc2c1cc1n(c2=O)Cc2cc3c(CN(C)C)c(O)ccc3nc2-1"
  Value Observed: "< 5.00"
- Compound: "O=C(c1cc(Cc2n[nH]c(=O)c3ccccc23)ccc1F)N1CCN(C(=O)C2CC2)CC1 + CC[C@@]1(O)C(=O)OCc2c1cc1n(c2=O)Cc2cc3c(CN(C)C)c(O)ccc3nc2-1"
  Value Observed: "< 4.52"

Source of measurements: PubChem BioAssay AID1845208
